molecular target: HA of ca A/Brit. Columbia/CN-6/04 (H7N3-LP) virus (influenza A virus); experiment: cell-based or functional assay
Neutralization IC50, H7-BC04 listing for selected binders.
Numbers only here, please. The scale is µg/mL.

{"binder": "Antibody 10 (antibody, V domains shown) VH: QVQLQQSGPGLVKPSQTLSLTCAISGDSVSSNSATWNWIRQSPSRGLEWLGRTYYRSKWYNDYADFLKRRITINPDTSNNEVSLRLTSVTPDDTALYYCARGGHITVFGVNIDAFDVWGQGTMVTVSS VL: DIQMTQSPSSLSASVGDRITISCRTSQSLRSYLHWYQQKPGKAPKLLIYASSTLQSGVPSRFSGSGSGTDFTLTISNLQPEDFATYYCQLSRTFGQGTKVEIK", "unitsOfMeasure": "µg/mL", "Neutralization IC50, H7-BC04": 3.59}

API: the following record is the query input.
Could you tell me which Neutralization IC50, H7-BC04 is on file for Antibody 5 (antibody, V domains shown) VH: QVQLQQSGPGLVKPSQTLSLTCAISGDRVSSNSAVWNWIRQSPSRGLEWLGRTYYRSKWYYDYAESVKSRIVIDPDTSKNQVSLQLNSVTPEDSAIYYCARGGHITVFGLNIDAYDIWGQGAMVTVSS VL: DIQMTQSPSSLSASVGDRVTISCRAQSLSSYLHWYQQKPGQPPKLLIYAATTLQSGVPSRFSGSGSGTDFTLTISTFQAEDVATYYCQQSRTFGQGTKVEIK ?
5.35
